- subject_of_test: T1, recombinant human IL-27 (human, UniProt Q14213 21-229; Q8NEV9 29-243)
- T1 construct: Bought from R&D Systems (Cat. 2526-IL); also called hIL-27; rhIL-27
- T1 sequence 1: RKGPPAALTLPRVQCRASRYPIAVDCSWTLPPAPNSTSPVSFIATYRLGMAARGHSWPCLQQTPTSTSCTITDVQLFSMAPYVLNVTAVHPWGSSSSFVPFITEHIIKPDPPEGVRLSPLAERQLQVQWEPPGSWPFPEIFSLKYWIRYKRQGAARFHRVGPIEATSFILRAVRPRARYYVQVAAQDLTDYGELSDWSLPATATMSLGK
- T1 sequence 2: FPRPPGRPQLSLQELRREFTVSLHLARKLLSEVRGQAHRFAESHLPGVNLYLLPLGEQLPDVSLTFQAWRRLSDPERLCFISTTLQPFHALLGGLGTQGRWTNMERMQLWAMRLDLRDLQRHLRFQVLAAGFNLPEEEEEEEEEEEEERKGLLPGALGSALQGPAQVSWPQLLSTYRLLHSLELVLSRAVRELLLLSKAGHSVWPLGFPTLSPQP
- assay_procedure: SPR, hIL-27 on CM5 chip, bivalent analyte model (kd1)
Recorded koff for the following binders

Consider the reported koff for these binders:
[
  {
    "binder": "Ab7.18 (antibody, human IgG1, kappa, V domains shown, human IgG1/kappa) VH: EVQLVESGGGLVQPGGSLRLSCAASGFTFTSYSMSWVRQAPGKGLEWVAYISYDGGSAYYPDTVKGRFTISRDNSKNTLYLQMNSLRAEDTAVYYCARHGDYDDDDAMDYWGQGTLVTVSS VL: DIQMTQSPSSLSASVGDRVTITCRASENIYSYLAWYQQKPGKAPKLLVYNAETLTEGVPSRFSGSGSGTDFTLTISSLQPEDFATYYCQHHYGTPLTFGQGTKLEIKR",
    "measurement_name": "koff",
    "recorded_value": "0.0028 s⁻¹"
  },
  {
    "binder": "Ab7.17 (antibody, human IgG1, kappa, V domains shown, human IgG1/kappa) VH: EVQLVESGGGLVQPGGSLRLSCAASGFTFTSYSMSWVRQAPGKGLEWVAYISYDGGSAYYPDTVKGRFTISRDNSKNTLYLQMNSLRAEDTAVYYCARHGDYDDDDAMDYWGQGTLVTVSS VL: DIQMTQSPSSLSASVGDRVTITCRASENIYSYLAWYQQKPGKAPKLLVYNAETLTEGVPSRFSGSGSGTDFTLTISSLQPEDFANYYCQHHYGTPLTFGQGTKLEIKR",
    "measurement_name": "koff",
    "recorded_value": "0.0029 s⁻¹"
  }
]

Please examine the following record next.
What the record says about Ab7.3 (antibody, human IgG1, kappa, V domains shown, human IgG1/kappa) VH: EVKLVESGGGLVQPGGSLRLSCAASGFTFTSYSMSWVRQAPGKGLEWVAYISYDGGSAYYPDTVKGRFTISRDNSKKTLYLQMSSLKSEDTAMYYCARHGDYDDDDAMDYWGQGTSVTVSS VL: DIQMTQSPASLSASVGETVTITCRASENIYSYLAWYQQKQGKSPQLLVYNAETLTEGVPSRFSGSGSGTQFSLKINSLQPEDFGNYYCQHHYGTPLTFGAGTKLDLKR : koff is 0.0022 s⁻¹

Where these numbers come from: patent US20190382474A1
